Parameter: pKd. Scope: all listed entries.
B1: NELF-E aptamer (parent)
chain: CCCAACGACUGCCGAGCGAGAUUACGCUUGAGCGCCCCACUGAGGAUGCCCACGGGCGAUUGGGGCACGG

- Variants of: B1
- assay.overview: HiTS-RAP
- study.conditions: with NELF-E (Drosophila)
When answering, recall that pKd equals minus log10 of the concentration in mol/L, and write that number alone.

Here is how some variants turned out for pKd.
CCCAAGGACAGCCGAGCGAGAUUACGCUUGAGCGCCCCACUGAGGAUGCCCACGGGCGAUUGGGGCACGG [C6G U10A]: 8.29
CCCAACGACUGCCGAGCGAGAGUACGCUUGAGCGCCCCACUGAGAAUGCCCACGGGCGAUUGGGGCACGG [U22G G45A]: 7.13
CCCAACGACUGCCGAGCGAGAUUACGCUUGAGCGCCCCACGGAGGAUGCCCACGGGCGAUAGGGGCACGG [U41G U61A]: 7.46
CCCAACGACGGCCGAGCGAGAUUACGCUUGAGCGCCCCACUGAGGAUGCCCACUGGCGAUUGGGGCACGG [U10G G54U]: 8.16
CCCAACGAGUGCCGAGCGAGAUUACGCUUGAGCGCCCCACUGAGGAUGCCCACGGGCGAUCGGGGCACGG [C9G U61C]: 7.05

# input Which pKd value is on record for CCCAACGGCUGCCGUGCGAGAUUACGCUUGAGCGCCCCACUGAGGAUGCCCACGGGCGAUUGGGGCACGG [A8G A15U] ?
# output 8.26

# input Which pKd value is on record for CCCAUCGACUGCCGAGCGAGAUUAGGCUUGAGCGCCCCACUGAGGAUGCCCACGGGCGAUUGGGGCACGG [A5U C25G] ?
# output 8.21

# input Which pKd value is on record for CCCAACGACUGCCUAGCGAGAUUACGCUUGAGCGCCCCACUGAGGAUGCCCACGGGCGAUUGAGGCACGG [G14U G63A] ?
# output 7.92

# input Which pKd value is on record for CCCAACGACUGCGGAGCGAGAUUACGCUUGAGCGCCCCACUUAGGAUGCCCACGGGCGAUUGGGGCACGG [C13G G42U] ?
# output 8.27

# input Which pKd value is on record for CCCAACGACUGCCGGACGAGAUUACGCUUGAGCGCCCCACUGAGGAUGCCCACGGGCGAUUGGGGCACGG [A15G G16A] ?
# output 8.08

# input Which pKd value is on record for CCCAACGACUGCCGAGCGAGAUUACGCUGGAGCGCGCCACUGAGGAUGCCCACGGGCGAUUGGGGCACGG [U29G C36G] ?
# output 8.09
